Origin of values: the supplement of paper PMC10567573

B1: DUSP5 (parent)
chain: YSEYPECCVDVKPISQEKIESERA

variants of: B1; experiment: protein stability index of a GFP-peptide fusion (GPS, HEK-293T) (PSI 1-6); higher = more stable; conditions: c terminus: a fixed tail appended;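 also: lentivirally expressed fusions sorted by FACS into six bins by GFP to DsRed ratio, PSI derived from sequencing read proportions per bin multiplied by bin number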
test_readout: protein stability index

>  <construct_sequence>
YSEYPECCVDVHPISQEKIESERA [K12H]

>  <numeric_readout>
4.95

$$$$
>  <construct_sequence>
YSEYPECCVDSKPISQEKIESERA [V11S]

>  <numeric_readout>
4.24

$$$$
>  <construct_sequence>
YSEYPECCVDVKPIPQEKIESERA [S15P]

>  <numeric_readout>
4.38

$$$$
>  <construct_sequence>
YSEYPECCVDVKPISQEWIESERA [K18W]

>  <numeric_readout>
3.73

$$$$
>  <construct_sequence>
YSEYPECCVDVKPISQEKITSERA [E20T]

>  <numeric_readout>
3.59

$$$$
>  <construct_sequence>
YSEYPECCVDVKPISQENIESERA [K18N]

>  <numeric_readout>
4.19

$$$$
>  <construct_sequence>
YSEQPECCVDVKPISQEKIESERA [Y4Q]

>  <numeric_readout>
5.34

$$$$
>  <construct_sequence>
YSEYPECCVDVKPISQETIESERA [K18T]

>  <numeric_readout>
4.52

$$$$
>  <construct_sequence>
YSEYPECCVDVWPISQEKIESERA [K12W]

>  <numeric_readout>
3.26

$$$$
>  <construct_sequence>
YLEYPECCVDVKPISQEKIESERA [S2L]

>  <numeric_readout>
3.67

$$$$
>  <construct_sequence>
YSEYPECYVDVKPISQEKIESERA [C8Y]

>  <numeric_readout>
2.15

$$$$
>  <construct_sequence>
YSEYPECCVDVKEISQEKIESERA [P13E]

>  <numeric_readout>
4.19

$$$$
>  <construct_sequence>
YSEYPECCVDVKPISEEKIESERA [Q16E]

>  <numeric_readout>
4.33

$$$$
>  <construct_sequence>
YSEYPECCVDVKPIAQEKIESERA [S15A]

>  <numeric_readout>
4.16

$$$$
>  <construct_sequence>
YSEYPQCCVDVKPISQEKIESERA [E6Q]

>  <numeric_readout>
2.67

$$$$
>  <construct_sequence>
YSEYPECCVDVKPISQAKIESERA [E17A]

>  <numeric_readout>
4.41

$$$$
>  <construct_sequence>
YSEYPECCVDVKPIHQEKIESERA [S15H]

>  <numeric_readout>
4.47

$$$$
>  <construct_sequence>
YSEEPECCVDVKPISQEKIESERA [Y4E]

>  <numeric_readout>
5.93

$$$$
>  <construct_sequence>
YSEYPECCVDVKPMSQEKIESERA [I14M]

>  <numeric_readout>
4.65

$$$$
>  <construct_sequence>
YSEYPECCVDVKPISQEKIESEAA [R23A]

>  <numeric_readout>
4.23

$$$$
>  <construct_sequence>
YSEHPECCVDVKPISQEKIESERA [Y4H]

>  <numeric_readout>
5.02

$$$$
>  <construct_sequence>
YSAYPECCVDVKPISQEKIESERA [E3A]

>  <numeric_readout>
4.55

$$$$
>  <construct_sequence>
YSEYPECCVDVKPISQEKIESECA [R23C]

>  <numeric_readout>
4.98

$$$$
>  <construct_sequence>
YSEYPSCCVDVKPISQEKIESERA [E6S]

>  <numeric_readout>
2.9

$$$$
>  <construct_sequence>
YSEYPECCVDVIPISQEKIESERA [K12I]

>  <numeric_readout>
3.72

$$$$
>  <construct_sequence>
YTEYPECCVDVKPISQEKIESERA [S2T]

>  <numeric_readout>
2.62

$$$$
>  <construct_sequence>
YSEYPECCVDVKGISQEKIESERA [P13G]

>  <numeric_readout>
4.03

$$$$
>  <construct_sequence>
YSEYPECCVDVKPISQEPIESERA [K18P]

>  <numeric_readout>
3.84

$$$$
>  <construct_sequence>
YSDYPECCVDVKPISQEKIESERA [E3D]

>  <numeric_readout>
5.39

$$$$
>  <construct_sequence>
YSEYPECCVDVRPISQEKIESERA [K12R]

>  <numeric_readout>
4.25

$$$$
>  <construct_sequence>
YREYPECCVDVKPISQEKIESERA [S2R]

>  <numeric_readout>
5.49

$$$$
>  <construct_sequence>
YSEYPECCVDVMPISQEKIESERA [K12M]

>  <numeric_readout>
4.18

$$$$
>  <construct_sequence>
YSEYPECCVDVKPISQEKMESERA [I19M]

>  <numeric_readout>
4.1

$$$$
>  <construct_sequence>
YSEYPECCVAVKPISQEKIESERA [D10A]

>  <numeric_readout>
3.56

$$$$
>  <construct_sequence>
YNEYPECCVDVKPISQEKIESERA [S2N]

>  <numeric_readout>
5.31

$$$$
>  <construct_sequence>
YSEYPECCGDVKPISQEKIESERA [V9G]

>  <numeric_readout>
4.4

$$$$
>  <construct_sequence>
YSEYPECCVDVTPISQEKIESERA [K12T]

>  <numeric_readout>
4.07

$$$$
>  <construct_sequence>
YSEYPECCVPVKPISQEKIESERA [D10P]

>  <numeric_readout>
3.96

$$$$
>  <construct_sequence>
YSEYPECCVDVKRISQEKIESERA [P13R]

>  <numeric_readout>
3.48

$$$$
>  <construct_sequence>
YSEYPECCVDVKPISHEKIESERA [Q16H]

>  <numeric_readout>
3.99

$$$$
>  <construct_sequence>
YSEYPECCVDVKPISQEKIEKERA [S21K]

>  <numeric_readout>
4.49

$$$$
>  <construct_sequence>
YSEPPECCVDVKPISQEKIESERA [Y4P]

>  <numeric_readout>
5.53

$$$$
>  <construct_sequence>
YSEYPECCVDVKFISQEKIESERA [P13F]

>  <numeric_readout>
3.85

$$$$
>  <construct_sequence>
YSEYPECCVDVKPISQEKIKSERA [E20K]

>  <numeric_readout>
4.02

$$$$
>  <construct_sequence>
YSFYPECCVDVKPISQEKIESERA [E3F]

>  <numeric_readout>
4.66

$$$$
>  <construct_sequence>
YSEYPECCWDVKPISQEKIESERA [V9W]

>  <numeric_readout>
3.39

$$$$
